Reference source: patent US10485773B2

# Test system: human liver cancer cell lines Hep3B
# test protocol: SRB growth inhibition of liver cancer cells
# Format: cell-based
# condition: Homo sapiens, Hep3B, 48 h, derivative dissolved in DMSO; 48 hours; SRB; read-out: IC50 of Hep3B in DMSO
pIC50: −log10 of the molar value.
property: pIC50

Worked cases, answers included:
Cc1ccc(S(=O)(=O)N2CC(N)C2)cc1.Cl [PTSA074] : < 2.74
Cc1ccc(S(=O)(=O)NC(=O)NS(=O)(=O)c2ccc(C)cc2)cc1 [PTSA017] : < 2.52
Cc1ccc(S(=O)(=O)N2CCCC2C(=O)O)cc1 (centres unmarked) [PTSA047] : < 2.52

Batch of 4 molecules: report pIC50 for each.
1. CON=C1CN(S(=O)(=O)c2ccc(C)cc2)C1 [PTSA072]
2. Cc1ccc(S(=O)(=O)NCCS(=O)(=O)O)cc1 [PTSA048]
3. Cc1ccc(S(=O)(=O)NCCF)cc1 [PTSA049]
4. Cc1ccc(S(=O)(=O)N2CC(F)(F)C2)cc1 [PTSA064]

< 2.95
< 2.52
< 3.76
< 3.15

Please give measured pIC50 of the following entry: Cc1ccc(S(=O)(=O)N2CC(C(N)=O)C2)cc1 [PTSA062]
< 2.65
